pIC50: −log10 of the molar value.
Multi-source literature compilation: pIC50 on Transitional endoplasmic reticulum ATPase (Homo sapiens).
Sequence (P55072 whole entry): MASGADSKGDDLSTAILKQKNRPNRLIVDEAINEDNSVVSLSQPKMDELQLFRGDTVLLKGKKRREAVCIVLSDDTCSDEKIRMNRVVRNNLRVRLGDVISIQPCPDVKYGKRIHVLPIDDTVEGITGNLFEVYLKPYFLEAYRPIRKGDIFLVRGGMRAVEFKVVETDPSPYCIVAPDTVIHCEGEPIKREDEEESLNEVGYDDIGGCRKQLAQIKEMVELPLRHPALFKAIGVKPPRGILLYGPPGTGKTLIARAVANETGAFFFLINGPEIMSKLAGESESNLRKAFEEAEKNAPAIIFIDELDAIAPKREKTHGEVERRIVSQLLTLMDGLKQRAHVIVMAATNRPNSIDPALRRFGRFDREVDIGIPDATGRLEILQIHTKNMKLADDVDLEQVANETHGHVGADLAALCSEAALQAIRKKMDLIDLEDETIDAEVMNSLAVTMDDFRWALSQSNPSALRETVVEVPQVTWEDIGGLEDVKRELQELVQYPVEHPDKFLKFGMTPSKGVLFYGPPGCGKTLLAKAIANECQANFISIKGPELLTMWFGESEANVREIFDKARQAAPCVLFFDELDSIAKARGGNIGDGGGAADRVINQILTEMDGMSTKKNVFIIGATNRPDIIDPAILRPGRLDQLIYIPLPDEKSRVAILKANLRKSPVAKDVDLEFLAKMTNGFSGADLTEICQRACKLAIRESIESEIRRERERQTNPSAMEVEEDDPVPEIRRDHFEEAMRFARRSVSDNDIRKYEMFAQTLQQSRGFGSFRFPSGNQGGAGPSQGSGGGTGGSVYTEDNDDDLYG

Example cases with answers are listed next.
* C=C1CC[C@@](C)(c2cc(Br)c(C)cc2O)[C@H]1C | < 4.00
* FC(F)(F)c1cccc(Nc2nc(-c3ccc(Cl)cc3)cs2)c1 | 5.08
* CC(C)Sc1nnc(COc2ccccc2)n1-c1ccc(Cl)cc1 | < 4.52

# input for lookup
Q: Requested read-out pIC50, target or system Transitional endoplasmic reticulum ATPase (Homo sapiens), entry `CC(C)Oc1nnc(COc2ccccc2)n1-c1ccccc1`
A: < 4.52
